TEST DETAILS: total protein half-life in vivo (active degradation + dilution); higher = more stable protein
SETTINGS: wild type E. coli NCM3722; growth: P-lim chemostat; doubling time 12 h
OBSERVATION TYPE: total protein half-life in vivo (h)
Please respond with the number in h and leave the unit unwritten.

# query: total protein half-life in vivo of entry MATYLIGDVHGCYDELIALLHKVEFTPGKDTLWLTGDLVARGPGSLDVLRYVKSLGDSVRLVLGNHDLHLLAVFAGISRNKPKDRLTPLLEAPDADELLNWLRRQPLLQIDEEKKLVMAHAGITPQWDLQTAKECARDVEAVLSSDSYPFFLDAMYGDMPNNWSPELRGLGRLRFITNAFTRMRFCFPNGQLDMYSKESPEEAPAPLKPWFAIPGPVAEEYSIAFGHWASLEGKGTPEGIYALDTGCCWGGTLTCLRWEDKQYFVQPSNRHKDLGEAAAS
9.31
